# subject of test: UniProt P56817
# protocol: In Vitro BACE Cell-based Assay (HEK cell assay): Aβ40 in conditioned medium of cells stably expressing Amyloid Precursor Protein, sandwich ELISA
# stated conditions: read-out: HEK cell assay
pIC50: −log10 of the molar value.
Give pIC50 for every item shown.

Exercise: Give recorded pIC50. `NC1=NC2(CO1)c1cc(C3=CCOCC3)ccc1Oc1ccc(C3=CCOCC3)cc12`
Key: 6.00 to 7.00

Exercise: Identify pIC50 associated with the molecule `CC(C)C#Cc1cnc2c(c1)[C@]1(COC(N)=N1)c1cc(-c3cncnc3)ccc1O2`
Key: > 7.00

Exercise: Tell me measured pIC50 for `CC1(COc2ccc3c(c2)[C@]2(COC(N)=N2)c2cc(-c4ccccc4F)cnc2O3)COC1` please.
Key: 6.00 to 7.00

Exercise: Give reported pIC50 value for `COC(C)(C)C#Cc1cc(F)c2c(c1)[C@]1(COC(N)=N1)c1cc(-c3cncnc3)ccc1O2`
Key: > 7.00

Exercise: Please give measured pIC50 of the following entry: `NC1=N[C@]2(CO1)c1cc(C3=CCOCC3)ccc1Oc1ccc(C3CC3)cc12`
Key: 5.30 to 6.00

Exercise: Input `CC(C)(C)C#Cc1ccc2c(c1)[C@]1(COC(N)=N1)c1nc(-c3cccnc3)ccc1O2` , output reported pIC50.
Key: 5.30 to 6.00

Exercise: Indicate its recorded pIC50; the molecule in question is `CC(C)(C)OC(=O)Cc1ccc2c(c1)[C@]1(COC(N)=N1)c1cc(-c3cncnc3)ccc1O2`
Key: 6.00 to 7.00

Exercise: Name the recorded pIC50 of the molecule listed here: `CC(C)(C)COc1ccc2c(c1)[C@@]1(COC(N)=N1)c1cc(C#N)ccc1O2`
Key: 5.30 to 6.00

* * *

# subject of test: BACE1 (Homo sapiens, UniProt P56817)
# Sequence (P56817 46-501, species assumed): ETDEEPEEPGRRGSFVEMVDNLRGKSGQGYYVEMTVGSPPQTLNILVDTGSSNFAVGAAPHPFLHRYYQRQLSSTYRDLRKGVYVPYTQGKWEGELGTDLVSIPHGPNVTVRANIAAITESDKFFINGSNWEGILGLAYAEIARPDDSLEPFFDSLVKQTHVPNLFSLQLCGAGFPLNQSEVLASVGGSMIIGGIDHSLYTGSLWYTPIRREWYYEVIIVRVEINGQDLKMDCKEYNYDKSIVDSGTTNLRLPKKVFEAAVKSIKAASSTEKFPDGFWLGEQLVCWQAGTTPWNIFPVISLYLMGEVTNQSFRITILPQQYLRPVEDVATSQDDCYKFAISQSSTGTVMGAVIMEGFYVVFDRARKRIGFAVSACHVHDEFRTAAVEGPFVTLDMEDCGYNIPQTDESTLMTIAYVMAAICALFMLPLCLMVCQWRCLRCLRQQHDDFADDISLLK
# protocol: In Vitro BACE Cell-based Assay (HEK cell assay): Aβ40 in conditioned medium of cells stably expressing Amyloid Precursor Protein, sandwich ELISA
# stated conditions: Table III; IC50's in uM ranges; read-out: HEK cell assay
Consider the following compounds; for each one, report its IC50.

Exercise: Specify measured IC50 for `CC(C)(C)CCc1ccc2c(c1)[C@@]1(COC(N)=N1)c1cc(-c3cccnc3)cnc1O2` .
Key: < 0.1 µM

Exercise: Supply measured IC50 of `NC1=N[C@]2(CO1)c1cc(C(=O)CC3CCCCC3)ccc1Oc1ccc(-c3cncnc3)cc12` in your reply.
Key: 0.1 to 1 µM

Exercise: Using the record for `CC(C)(C#N)COc1ccc2c(c1)[C@]1(COC(N)=N1)c1cc(-c3cccnc3)cnc1O2` , state its measured IC50.
Key: < 0.1 µM

Exercise: Tell me its IC50 given CC(C)(C)CC(O)c1ccc2c(c1)[C@@]1(COC(N)=N1)c1cc(-c3ccc(F)nc3)ccc1O2 (stereo partly shown) [162b] as the entry.
Key: 0.1 to 1 µM

Exercise: Give reported IC50 value for `NC1=N[C@]2(CO1)c1cc(-c3cccnc3)ccc1Oc1ncc(Br)cc12`
Key: 0.1 to 1 µM

Exercise: Tell me IC50 reported for `CC(C)(C)COc1ccc2c(c1)[C@]1(COC(N)=N1)c1cc(-c3cnccn3)ccc1O2`
Key: < 0.1 µM

Exercise: Consider the compound `N#Cc1ccc(-c2ccc3c(c2)[C@]2(COC(N)=N2)c2cc(-c4cccnc4)ccc2O3)cc1` . State its measured IC50.
Key: < 0.1 µM

* * *

# subject of test: BACE1 (Homo sapiens)
# protocol: In Vitro BACE Cell-based Assay (HEK cell assay): Aβ40 in conditioned medium of cells stably expressing Amyloid Precursor Protein, sandwich ELISA
# stated conditions: Table IV, class symbols; read-out: HEK cell assay
Kindly supply the reported IC50 values for the records listed here.

Exercise: Kindly indicate its recorded IC50. Item: `NC1=N[C@@]2(CO1)c1cc(-c3cccnc3)ccc1Oc1ccc(N3CC(F)(F)C3)cc12`
Key: < 100 nM

Exercise: Give the measured IC50 for `NC1=N[C@]2(CO1)c1cc(CCC3(O)CCC3)ccc1Oc1ccc(-c3cncnc3)cc12`
Key: < 100 nM

Exercise: Identify the reported IC50 for the following entry. `NC1=N[C@@]2(CO1)c1cc(-c3cccnc3F)ccc1Oc1cnc(Cl)cc12`
Key: 100 to 1000 nM

Exercise: Input `CC(C)(C)COc1ccc2c(c1)[C@]1(COC(N)=N1)c1cc(C(=O)N3CCC3)ccc1O2` , output reported IC50.
Key: 100 to 1000 nM

Exercise: Quickly give me recorded IC50 for `NC1=N[C@]2(CO1)c1cc(-c3cccc(OC(F)(F)F)c3)ccc1Oc1ncccc12`
Key: 1000 to 5000 nM

Exercise: State, in one line, measured IC50 of `COc1cc(F)c2c(c1)[C@]1(COC(N)=N1)c1cc(-c3cncnc3)ccc1O2`
Key: < 100 nM

Exercise: Retrieve IC50 measured for NC1=NC2(CO1)c1cnc(Cl)cc1Oc1ccc(-c3cncnc3)cc12 (stereo not drawn) and print it.
Key: > 5000 nM

Exercise: Please look at this molecule and report its IC50: `NC1=N[C@]2(CO1)c1ccccc1Oc1ccc(-c3c(F)ccnc3F)cc12`
Key: 1000 to 5000 nM

Exercise: State its IC50: `COc1ccc2c(c1)[C@]1(COC(N)=N1)c1cc(NC(=O)[C@@H](C)OC)ccc1O2`
Key: 100 to 1000 nM

Exercise: Supply recorded IC50 for `CC(C)(C)COc1ccc2c(c1)[C@]1(COC(N)=N1)c1cc(-c3ccc(Cl)nc3)ccc1O2` here.
Key: 100 to 1000 nM

Exercise: Supply IC50 value. Item: `CC(C)(C)OC(=O)Cc1ccc2c(c1)[C@@]1(COC(N)=N1)c1cc(Br)ccc1O2`
Key: > 5000 nM

Exercise: Hello, please tell me recorded IC50 for this one: `NC1=N[C@@]2(CO1)c1cc(Br)ccc1Oc1cnc(Cl)cc12`
Key: > 5000 nM

Exercise: Complete the entry with IC50 for `NC1=N[C@@]2(CO1)c1cc(-c3cccnc3)ccc1Oc1cnc(-c3cccnc3)cc12`
Key: < 100 nM

Exercise: Tell me its IC50 given `NC1=N[C@]2(CO1)c1cc(Br)ccc1Oc1ccc(Cl)nc12` as the entry.
Key: > 5000 nM

Exercise: // fetch IC50 given entry `CC(C)(C)COc1ccc2c(c1)[C@]1(COC(N)=N1)c1cc(C(C)(C)O)ccc1O2`
Key: 1000 to 5000 nM

Exercise: Quick one: give measured IC50 for `NC1=N[C@@]2(CO1)c1cc(Br)ccc1Oc1ccc(/C=C/C(=O)O)cc12`
Key: > 5000 nM

Exercise: Please supply the value of reported IC50 for the item `Cn1cc(-c2ccc3c(c2)[C@]2(COC(N)=N2)c2cc(-c4cccnc4F)ccc2O3)cn1`
Key: < 100 nM

Exercise: Give the reported value of IC50 for this record: `NC1=N[C@]2(CO1)c1cc(-c3ccc(O)cc3)ccc1Oc1ccc(-c3cncnc3)cc12`
Key: 100 to 1000 nM

Exercise: Identify the reported IC50 for the following entry. `COc1ccc2c(c1)[C@]1(COC(N)=N1)c1cc(-c3cccc4cnccc34)ccc1O2`
Key: 1000 to 5000 nM

Exercise: Give the measured IC50 for `COc1ccc2c(c1)[C@]1(COC(N)=N1)c1cc(NC(=O)[C@H](C)OC)ccc1O2`
Key: 1000 to 5000 nM

Exercise: Give IC50 for the following molecule: `COC(C)(C)C#Cc1ccc2c(c1)[C@@]1(COC(N)=N1)c1cc(-c3ccc(C)cc3)cnc1O2`
Key: < 100 nM

Exercise: Report IC50, nothing else, for this molecule: `NC1=N[C@]2(CO1)c1cc(-c3ccccc3)ccc1Oc1ncccc12`
Key: > 5000 nM

Exercise: Output IC50 of `CC(C)(C)CCc1cnc2c(c1)[C@]1(COC(N)=N1)c1cc(-c3cccnc3)ccc1O2`
Key: < 100 nM

Exercise: Identify IC50 associated with the molecule `Cc1ccc(-n2ccc3c(c2=O)[C@@]2(COC(N)=N2)c2cc(-c4cccnc4)ccc2O3)cc1`
Key: 100 to 1000 nM

* * *

For each record, write down the corresponding IC50.
# subject of test: BACE1 (Homo sapiens, UniProt P56817)
# protocol: In Vitro BACE Cell-based Assay (HEK cell assay): Aβ40 in conditioned medium of cells stably expressing Amyloid Precursor Protein, sandwich ELISA
# stated conditions: Table IV, class symbols; read-out: HEK cell assay

Exercise: Input CC(C)C(C)(O)COc1ccc2c(c1)[C@]1(COC(N)=N1)c1cc(-c3cccnc3)ccc1O2 (some centres unmarked) [compound 867] , output reported IC50.
Key: < 100 nM

Exercise: Tell us which IC50 value is on record for NC1=N[C@]2(CO1)c1ccccc1Oc1ccc(-c3cncc4ccccc34)cc12 [compound 629]
Key: > 5000 nM

Exercise: Determine its reported IC50: CN(C)c1ncc(-c2ccc3c(c2)[C@@]2(COC(N)=N2)c2cc(OCC(C)(C)C)ccc2O3)cn1 [compound 838]
Key: > 5000 nM

Exercise: Tell me IC50 reported for NC1=N[C@@]2(CO1)c1cc(-c3cncnc3)ccc1Oc1c(F)cccc12 [compound 553]
Key: 100 to 1000 nM

Exercise: Give the reported IC50 for this molecule. COc1ccc2c(c1)[C@]1(COC(N)=N1)c1cc(NC(=O)C3CCCO3)ccc1O2 (some centres unmarked) [compound 614]
Key: 100 to 1000 nM

Exercise: Report IC50, nothing else, for this molecule: NC1=N[C@@]2(CO1)c1ccccc1Oc1ccc(C(=O)N3CCCCC3)cc12 [compound 639]
Key: > 5000 nM

Exercise: Return IC50 (reported value) for this molecule: COc1ccc2c(c1)[C@@]1(COC(N)=N1)c1c(ccc(-c3cncnc3)c1F)O2 [compound 899]
Key: 1000 to 5000 nM

Exercise: Quickly give me recorded IC50 for CC(C)c1nc(-c2ccc3c(c2)[C@@]2(COC(N)=N2)c2cc(OCC(C)(C)C)ccc2O3)cs1 [compound 832]
Key: 1000 to 5000 nM

Exercise: Return IC50 for the following molecule: COc1cc(F)c2c(c1)[C@]1(COC(N)=N1)c1cc(-c3cncnc3)cnc1O2 [compound 584]
Key: > 5000 nM

Exercise: Look up and state reported IC50 for COc1ccc(-c2ccc3c(c2)[C@]2(COC(N)=N2)c2cc(-c4cncnc4)ccc2O3)cn1 [compound 829]
Key: < 100 nM

Exercise: Name the recorded IC50 of the molecule listed here: CC1(C)Cc2cc(-c3ccc4c(c3)[C@]3(COC(N)=N3)c3cc(-c5cncnc5)ccc3O4)ccc2O1 [compound 841]
Key: 100 to 1000 nM

Exercise: Write down IC50 measured for item NC1=N[C@@]2(CO1)c1cc(-c3ccccc3)ccc1Oc1ncc(N3CCOCC3)cc12 [compound 626]
Key: < 100 nM

Exercise: # return recorded IC50 for entry CC(C)(C)COc1ccc2c(c1)[C@]1(COC(N)=N1)c1cc(-c3ccc(F)nc3)cnc1O2 [compound 869]
Key: 1000 to 5000 nM

Exercise: Return IC50 for the following molecule: CC1(COc2ccc3c(c2)[C@@]2(COC(N)=N2)c2cc(-c4cncnc4)cc(F)c2O3)COC1 [compound 795]
Key: < 100 nM

Exercise: Look up and report measured IC50 for this entry: CCCOc1cc2c(cc1F)Oc1ccc(-c3ccc(F)nc3)cc1[C@]21COC(N)=N1 [compound 921]
Key: 1000 to 5000 nM

Exercise: Provide one value: measured IC50 of COc1ccc(-c2ccc3c(c2)[C@]2(COC(N)=N2)c2cc(-c4cncnc4)ccc2O3)cc1 [compound 892]
Key: < 100 nM

Exercise: Please give the documented IC50 of Cc1ccc(-c2cnc3c(c2)[C@]2(COC(N)=N2)c2cc(C#CC(C)(C)O)ccc2O3)cc1 [compound 579]
Key: < 100 nM

Exercise: Fill in IC50 for record NC1=N[C@@]2(CO1)c1cc(-c3ccccc3)ccc1Oc1cnc(C3=CCOCC3)cc12 [Example 545]
Key: < 100 nM

Exercise: Give me measured IC50, please, for this molecule: CC(C)(C)COc1ccc2c(c1)[C@]1(COC(N)=N1)c1cc(-c3cccnc3C(F)(F)F)ccc1O2 [compound 911]
Key: > 5000 nM

Exercise: Provide only the value of recorded IC50 for CN1CCN(c2ccc3c(c2)[C@@]2(COC(N)=N2)c2cc(OCC(C)(C)C)ccc2O3)CC1 [compound 812]
Key: 100 to 1000 nM

Exercise: Identify measured IC50 corresponding to Cc1cc(-c2ccc3c(c2)[C@]2(COC(N)=N2)c2cc(-c4cccnc4F)ccc2O3)on1 [Example 563]
Key: < 100 nM

Exercise: Input CC(C)(O)COc1ccc2c(c1)[C@]1(COC(N)=N1)c1cc(-c3cccnc3F)ccc1O2 [compound 906] , output reported IC50.
Key: < 100 nM

Exercise: Answer with reported IC50 of CCOC(=O)/C=C/c1ccc2c(c1)[C@]1(COC(N)=N1)c1cc(-c3cncnc3)ccc1O2 [compound 825]
Key: 100 to 1000 nM

Where do these numbers come from? They come from patent US8426447B2.
